- SUBJECT_OF_TEST: human CYP2C19 (Homo sapiens)
- Construct: purchased Sumitomo Chemical Co., Ltd
- Sequence (P33261 whole entry): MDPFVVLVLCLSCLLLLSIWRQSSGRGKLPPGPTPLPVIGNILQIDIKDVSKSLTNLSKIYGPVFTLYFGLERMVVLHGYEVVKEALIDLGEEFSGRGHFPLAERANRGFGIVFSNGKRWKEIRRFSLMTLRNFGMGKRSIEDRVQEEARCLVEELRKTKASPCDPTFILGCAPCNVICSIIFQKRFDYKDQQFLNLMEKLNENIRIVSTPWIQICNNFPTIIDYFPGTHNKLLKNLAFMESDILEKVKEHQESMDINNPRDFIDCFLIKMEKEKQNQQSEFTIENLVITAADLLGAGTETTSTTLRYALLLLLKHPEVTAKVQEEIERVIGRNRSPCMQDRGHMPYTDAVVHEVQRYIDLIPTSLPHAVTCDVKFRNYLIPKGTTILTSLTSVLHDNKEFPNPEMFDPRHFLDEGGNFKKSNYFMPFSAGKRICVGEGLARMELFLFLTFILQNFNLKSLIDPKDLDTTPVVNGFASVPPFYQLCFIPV
- ASSAY_INFO: Test 3 human CYP2C19 activity inhibition test (S-(+)-mephenyloin to 4'-hydroxymephenyloin)
- Format: in vitro ADME
- TEST_CONTEXT: test compound 10 μM; microsomes from human CYP2C19 expression system; formed 4'-hydroxymephenyloin compared with control
VALUE_TYPE: CYP2C19 activity inhibition (%)

* Cc1c(OCCOCC(F)(F)F)ccnc1C[S+]([O-])c1nc2ccccc2n1NCCCO (racemic) [Example 60] | 71.4
* COCCCOc1ccnc(C[S+]([O-])c2nc3ccccc3n2NCC(C)O)c1C (mixture of isomers) [Example 63] | 72.1
* COc1ccc2[nH]c([S+]([O-])Cc3ncc(C)c(OC)c3C)nc2c1 (stereo not shown) [Omeprazole, omeprazole, reference compound] | 18.4
* COCCCOc1ccnc(C[S+]([O-])c2nc3ccccc3n2N)c1C (racemic) [Example 21] | 78.6

----------
- SUBJECT_OF_TEST: H+/K+-ATPase (Sus scrofa, UniProt P19156)
- Construct: An interface fraction obtained by the centrifugation was collected
- Sequence (P19156 2-1034 limits assumed): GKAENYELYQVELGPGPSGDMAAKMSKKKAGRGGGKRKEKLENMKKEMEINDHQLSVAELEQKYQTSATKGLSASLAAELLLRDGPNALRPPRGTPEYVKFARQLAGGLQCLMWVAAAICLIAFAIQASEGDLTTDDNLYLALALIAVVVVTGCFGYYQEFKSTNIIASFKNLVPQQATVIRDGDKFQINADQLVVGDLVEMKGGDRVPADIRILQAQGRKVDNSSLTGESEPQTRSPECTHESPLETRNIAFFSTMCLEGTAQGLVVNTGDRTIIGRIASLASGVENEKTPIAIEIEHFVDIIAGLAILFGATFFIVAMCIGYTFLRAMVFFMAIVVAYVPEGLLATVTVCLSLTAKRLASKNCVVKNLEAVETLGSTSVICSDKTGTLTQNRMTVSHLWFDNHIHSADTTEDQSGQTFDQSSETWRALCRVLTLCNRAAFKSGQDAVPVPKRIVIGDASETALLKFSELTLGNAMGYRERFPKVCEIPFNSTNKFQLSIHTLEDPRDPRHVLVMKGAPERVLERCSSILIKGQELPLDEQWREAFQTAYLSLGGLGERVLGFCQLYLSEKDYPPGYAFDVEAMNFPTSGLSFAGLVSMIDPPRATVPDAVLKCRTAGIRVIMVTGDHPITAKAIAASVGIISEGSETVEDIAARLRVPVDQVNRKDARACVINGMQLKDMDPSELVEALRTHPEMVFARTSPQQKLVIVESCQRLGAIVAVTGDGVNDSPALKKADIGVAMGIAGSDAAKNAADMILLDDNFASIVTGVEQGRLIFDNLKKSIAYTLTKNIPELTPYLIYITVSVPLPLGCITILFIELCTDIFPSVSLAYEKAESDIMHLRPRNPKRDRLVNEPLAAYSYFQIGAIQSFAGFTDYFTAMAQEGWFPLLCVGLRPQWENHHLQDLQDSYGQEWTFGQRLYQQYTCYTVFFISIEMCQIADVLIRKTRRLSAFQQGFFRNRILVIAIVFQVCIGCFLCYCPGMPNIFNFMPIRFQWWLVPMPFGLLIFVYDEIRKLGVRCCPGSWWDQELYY
- Sequence (P18434 whole entry partner): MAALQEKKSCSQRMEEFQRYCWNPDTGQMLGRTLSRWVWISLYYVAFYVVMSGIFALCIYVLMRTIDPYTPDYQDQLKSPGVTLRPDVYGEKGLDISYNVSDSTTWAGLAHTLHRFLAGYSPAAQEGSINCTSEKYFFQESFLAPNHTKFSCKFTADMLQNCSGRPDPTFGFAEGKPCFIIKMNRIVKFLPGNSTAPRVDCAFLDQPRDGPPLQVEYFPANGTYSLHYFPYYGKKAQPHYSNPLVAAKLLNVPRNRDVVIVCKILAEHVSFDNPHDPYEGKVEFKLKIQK
- ASSAY_INFO: Test 1 proton pump inhibitory effect: H+/K+-ATPase enzyme inhibiting activity at pH 1
- TEST_CONTEXT: swine stomach enzyme sample; test compound pretreated in pH 1 hydrochloric acid solution with 50% DMSO for 15 minutes; ATP substrate
VALUE_TYPE: IC50 (µM)

* Cc1c(OCC(F)(F)F)ccnc1C[S+]([O-])c1nc2ccccc2n1NCCCCCO (racemic) | 3.88
* Cc1c(OCC(F)(F)F)ccnc1C[S+]([O-])c1nc2ccccc2n1NCc1ccccc1 (racemic) | 1.03
* Cc1c(OCC(F)(F)F)ccnc1C[S+]([O-])c1nc2ccccc2n1NCCc1ccccc1 (racemic) | 0.87
* C=CCNn1c([S+]([O-])Cc2nccc(OCC(F)(F)F)c2C)nc2ccccc21 (racemic) | 2.28
* Cc1c(OCC(F)(F)F)ccnc1C[S+]([O-])c1nc2ccccc2n1NCC(O)c1ccccc1 (mixture of isomers) | 3.32
* Cc1c(OCC(F)(F)F)ccnc1C[S+]([O-])c1nc2cc(OC(F)F)ccc2n1N (stereo not shown) | 3.2
* COC(=O)CNn1c([S+]([O-])Cc2nccc(OCC(F)(F)F)c2C)nc2ccccc21 (racemic) | 4.85

----------
Where a name gives a salt, the structure may show the parent alone.
# melting point annotations
VALUE_TYPE: melting point

* CBc1cc(C)nc(C[S+]([O-])c2nc3ccccc3n2N)c1 (stereo not shown) [Example 7] | 130 to 133 °C
* Cc1c(OCC(F)(F)F)ccnc1C[S+]([O-])c1nc2cc(OC(F)F)ccc2n1N (stereo not shown) [Example 68] | 194 to 195 °C
* COc1ccc2nc([S+]([O-])Cc3ncc(C)c(OC)c3C)n(N)c2n1 (stereo not shown) [Example 78] | 174 to 175 °C
* Cc1c(OCC(F)(F)F)ccnc1C[S+]([O-])c1nc2ccccc2n1N (single isomer, unassigned; (+)) (as salt: tartrate) [(+) isomer of Example 1] | 111 to 113 °C
